Tested on: HCT-15 colon
Assay: NCI-60 one-dose screen, 48 h (100 = growth as untreated, 0 = no growth, -100 = all killed)
Details: 10 µM
Compounds without any hit were thinned out: in the full panel of roughly 83,000, 20% have a hit.
recorded-metric: growth (%)
# value in %; strip the unit string

Example entries begin here.
COc1ccc2oc(=O)cc(C3c4ccc([nH]4)C(c4cc(=O)oc5ccc(OC)cc45)c4ccc([nH]4)C(c4cc(=O)oc5ccc(OC)cc45)c4ccc([nH]4)C(c4cc(=O)oc5ccc(OC)cc45)c4ccc3[nH]4)c2c1 (centres undefined); -62.4
CC(C)C[C@H](NC(=O)CCn1ccc2ccccc2c1=O)B(O)O; 61.7
COc1cccc2c1O/C(=C\c1ncc([N+](=O)[O-])n1C)C2=O; 5.88

query: What value of growth has been recorded for this entry: CC(=O)Oc1ccc(C2=Cc3ccc(OC(C)=O)cc3OC2C)cc1 (centres undefined)
result: 48.4

query: What value of growth has been recorded for this entry: NCCNc1ccc2cc(-c3nc4ccccc4[nH]3)c(=O)oc2c1
result: 79.4

query: What value of growth has been recorded for this entry: COc1ccc(C2C=C(c3ccc(Cl)c(Cl)c3)N=C3SC(C)=CN32)cc1OC (centres undefined)
result: 80.7

query: What value of growth has been recorded for this entry: CCCN(CCC)CCCNC(=O)c1cc2c(-c3ccc(OC)c(OC)c3)nn(C)c2s1
result: 24.7

query: What value of growth has been recorded for this entry: COc1ccc(-c2nc(NC(=O)CS(=O)(=O)c3ccc(F)cc3)sc2C)cc1
result: 18.7

query: What value of growth has been recorded for this entry: C=CCOc1ccc2c(c1)CC[C@@H]1[C@@H]2CC[C@]2(C)C(=O)/C(=N/O)C[C@@H]12
result: 41.6

---

System: SK-OV-3 ovarian
Assay: NCI-60 one-dose screen, 48 h (100 = growth as untreated, 0 = no growth, -100 = all killed)
Conditions: 10 µM
Compounds without any hit were thinned out: in the full panel of roughly 83,000, 20% have a hit.
recorded-metric: growth (%)
# value in %; strip the unit string

COc1ccc(-c2[nH]ncc2-c2cc(OC)c(OC)c(OC)c2)cc1; -0.205
CC(C)/C=N/NC(N)=S; 110
COc1ccc(-c2n/c(=C\c3c(O)[nH]c4ccccc34)cc3c2=Nc2ccccc2-3)cc1; 93.5
CS(=O)(=O)Nc1ccc(OCc2nnc(-c3ccc(Cl)cc3)o2)c(F)c1; 88.8
O=C(O)c1ccccc1C(=O)c1cccc2c(F)cccc12; 109
Nc1ccccc1NC(=O)CCCCCCC(=O)Nc1ccc2c(c1)/C(=C/c1ccc[nH]1)C(=O)N2; 38.4

query: What value of growth has been recorded for this entry: Nc1nc(SCC#CCCl)c2[nH]cnc2n1
result: 49.6

query: What value of growth has been recorded for this entry: C/C(=N/NC(=O)c1sc(=S)n(C)c1N)c1cc2cc(Cl)ccc2o1
result: 102

query: What value of growth has been recorded for this entry: CCOC(=O)C(=O)Cc1cccnn1
result: 106

query: What value of growth has been recorded for this entry: C(=C\c1nc2ccccc2s1)/c1ccc(N2CCOCC2)s1
result: 98.7

query: What value of growth has been recorded for this entry: COc1ccc(-c2oncc2-c2cc(OC)c3c(c2)OCO3)cc1
result: 19.7

query: What value of growth has been recorded for this entry: COc1cc(/C=C2\C(=O)Nc3cc(C)c(O)cc32)cc(OC)c1OC
result: 77.5

query: What value of growth has been recorded for this entry: COc1ccc(-c2cc(/C=C3\C(=O)Nc4cc(Cl)ccc43)[nH]n2)cc1
result: 28.8

query: What value of growth has been recorded for this entry: O=[N+]([O-])c1cc2ncccc2c2ncccc12
result: 94.4
